Listing: pKi of selected molecules
# Assayed Target: Human immunodeficiency virus type 1 protease (Human immunodeficiency virus 1, UniProt Q72874)
# Experiment: Inhibition constant was determined against HIV-1 protease
*1 amine or outer side, *2 acyl side, *3 side chain or, on linkers, in order; H or OH if unused. Where a SMILES comes first, the peptide text is derived from it. [ ]: non-standard residue; d: D form. X2 = O=C([C@@H]1CCCN1C[C@H](Cc1ccccc1)N[*:1])[*:2]
Remember, pKi is on a log scale: it is -log10 of the molar concentration.

Molecule	Assay Readout	Value Reported
CC(C)[C@H](NC(=O)[C@@H](NC(=O)[C@@H]1CCCN1C[C@H](Cc1ccccc1)NC(=O)[C@H](C)NC(=O)[C@H](C)NC(=O)[C@@H](N)CO)C(C)C)C(N)=O (H-SAA[X2]VV-NH2)	pKi	4.73

Given COC(=O)[C@@H](NC(=O)[C@@H](NC(=O)[C@H](C)N1CCC([C@H](C)NC(=O)[C@H](C)N)=CC(Cc2ccccc2)C1)C(C)C)C(C)C (stereo in doubt; form 1) , respond with its pKi.
6.37
